target.entity: BACE1 (Homo sapiens)
Sequence (P56817 46-501): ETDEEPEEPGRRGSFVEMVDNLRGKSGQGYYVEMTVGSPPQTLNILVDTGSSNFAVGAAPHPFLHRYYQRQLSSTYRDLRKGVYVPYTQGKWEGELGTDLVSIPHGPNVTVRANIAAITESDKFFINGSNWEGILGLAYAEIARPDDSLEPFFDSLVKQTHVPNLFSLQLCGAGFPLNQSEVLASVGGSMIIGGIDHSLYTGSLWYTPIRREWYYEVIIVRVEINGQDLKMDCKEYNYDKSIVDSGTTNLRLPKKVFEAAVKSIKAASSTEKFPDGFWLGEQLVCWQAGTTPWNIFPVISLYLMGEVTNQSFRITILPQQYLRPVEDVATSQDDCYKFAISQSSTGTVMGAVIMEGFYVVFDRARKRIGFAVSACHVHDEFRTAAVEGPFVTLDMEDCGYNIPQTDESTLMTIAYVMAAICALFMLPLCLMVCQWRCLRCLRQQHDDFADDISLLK
measurement.notes: BACE1 biochemical cellular assay (sAPPβ ELISA in H4 cells overexpressing APP695)
Format: cell-based
Set-up: endogenous in cells; host or cells: H4 human neuroglioma cells overexpressing human APP695
applied.conditions: BACE1 enzyme IC50 versus BACE1 cellular IC50

{"input.smiles": "NC1=N[C@@]2(c3ccc(F)cc3F)CO[C@@H](c3nc(CO)co3)C[C@H]2[C@@H](CF)S1", "unit.of.measurement": "x", "BACE1 potency increase in live cells": 7.2}
{"input.smiles": "Cc1coc([C@H]2C[C@H]3[C@@H](CF)SC(N)=N[C@@]3(c3ccc(F)cc3F)CO2)n1", "unit.of.measurement": "x", "BACE1 potency increase in live cells": 12}
{"input.smiles": "Cc1cc([C@H]2C[C@H]3[C@@H](CF)SC(N)=N[C@@]3(c3ccc(F)cc3F)CO2)on1", "unit.of.measurement": "x", "BACE1 potency increase in live cells": 4.1}
{"input.smiles": "NC1=N[C@@]2(c3ccc(F)cc3F)CO[C@@H](c3cc(CO)no3)C[C@H]2[C@@H](CF)S1", "unit.of.measurement": "x", "BACE1 potency increase in live cells": 4.8}

The values you see were collected from paper PMC5062570.
